System: SW 900
Protocol Notes: relative viability (nuclei count vs DMSO), 5 days (fraction); higher = more cells survive
Test Parameters: first compound 0.1581 µM
Listed here are compounds together with their documented relative viability.
Could you keep your reply to the number by itself?

# Compound, relative viability
data = [
    ("Nc1ccn([C@@H]2O[C@H](CO)[C@@H](O)[C@@H]2O)c(=O)n1 [Cytarabine] + Cc1cc(Nc2cc(N3CCN(C)CC3)nc(Sc3ccc(NC(=O)C4CC4)cc3)n2)n[nH]1 [Tozasertib] (partner 0.1 µM)", 0.233),
    ("COc1cc2nccc(Oc3ccc(NC(=O)Nc4cc(C)on4)c(Cl)c3)c2cc1OC [Tivozanib] + N=C(N)NC(=N)NCCc1ccccc1 [Phenformin] (partner 250 µM)", 0.492),
    ("COc1cc2nccc(Oc3ccc(NC(=O)Nc4cc(C)on4)c(Cl)c3)c2cc1OC [Tivozanib] + COc1cccc2cc(-c3nc([C@H]4CC[C@H](C(=O)O)CC4)n4ncnc(N)c34)[nH]c12 [OSI-027] (partner 0.5 µM)", 0.301),
    ("COc1cc2nccc(Oc3ccc(NC(=O)Nc4cc(C)on4)c(Cl)c3)c2cc1OC [Tivozanib] + Cc1cc(Nc2cc(N3CCN(C)CC3)nc(Sc3ccc(NC(=O)C4CC4)cc3)n2)n[nH]1 [Tozasertib] (partner 0.1 µM)", 0.637),
]

[Q] Identify the reported relative viability for the following entry. Nc1ccn([C@@H]2O[C@H](CO)[C@@H](O)[C@@H]2O)c(=O)n1 [Cytarabine] + CC(=O)Nc1cccc(-n2c(=O)n(C3CC3)c(=O)c3c(Nc4ccc(I)cc4F)n(C)c(=O)c(C)c32)c1 [Trametinib] (partner 0.02 µM)
[A] 0.23

* * *

Listed here are molecules together with their documented relative viability.
Test system: HCC-78
Protocol Notes: relative viability (nuclei count vs DMSO), 5 days (fraction); higher = more cells survive
Test Parameters: first compound 0.01581 µM
Could you keep your reply to the number by itself?

Please review the following examples before continuing.
# Molecule, relative viability
rows = [
    ("COc1cc2nccc(Oc3ccc(NC(=O)Nc4cc(C)on4)c(Cl)c3)c2cc1OC [Tivozanib] + Cc1cc(Nc2cc(N3CCN(C)CC3)nc(Sc3ccc(NC(=O)C4CC4)cc3)n2)n[nH]1 [Tozasertib] (partner 0.1 µM)", 0.472),
    ("COc1cc2nccc(Oc3ccc(NC(=O)Nc4cc(C)on4)c(Cl)c3)c2cc1OC [Tivozanib] + COc1cccc2cc(-c3nc([C@H]4CC[C@H](C(=O)O)CC4)n4ncnc(N)c34)[nH]c12 [OSI-027] (partner 0.5 µM)", 0.369),
]

[Q] Answer with relative viability of Nc1ccn([C@@H]2O[C@H](CO)[C@@H](O)[C@@H]2O)c(=O)n1 [Cytarabine] + Cc1cc(Nc2cc(N3CCN(C)CC3)nc(Sc3ccc(NC(=O)C4CC4)cc3)n2)n[nH]1 [Tozasertib] (partner 0.1 µM) measured for HCC-78.
[A] 0.489

[Q] Answer with relative viability of Nc1ccn([C@@H]2O[C@H](CO)[C@@H](O)[C@@H]2O)c(=O)n1 [Cytarabine] + Cc1nc(NC(=O)N2CCC[C@H]2C(N)=O)sc1-c1ccnc(C(C)(C)C(F)(F)F)c1 [Alpelisib] (partner 2 µM) measured for HCC-78.
[A] 0.298

[Q] Answer with relative viability of COc1cc2nccc(Oc3ccc(NC(=O)Nc4cc(C)on4)c(Cl)c3)c2cc1OC [Tivozanib] + O=C(CCCCCCC(=O)Nc1ccccc1)NO [Vorinostat] (partner 1 µM) measured for HCC-78.
[A] 0.47
